These data points were gathered from patent US4555518A.

- System: gastric lesion formation (rat stomach)
- assay-overview: Shay rat: inhibition of gastric lesion formation induced by pyloric ligature and oral acetylsalicylic acid (protective effect on the stomach)
- Format: in vivo
- condition-label: perorally, rats, 1 h before pyloric ligature, 4 h, 100 mg/kg acetylsalicylic acid, dose reducing lesion index by 50% vs control
Below, each entry is listed with its recorded ED50.
Dear colleague, please return just the value in mg/kg, with no unit written.

COc1ccnc(CSc2nc3cc(OC(F)(F)F)ccc3[nH]2)c1C :: 0.3
COc1cc2[nH]c([S+]([O-])Cc3nccc(OC)c3C)nc2cc1OC(F)F (centres unmarked) :: 0.2

Look up ED50: COc1ccnc(C[S+]([O-])c2nc3cc(OC(F)(F)C(F)F)ccc3[nH]2)c1 (centres unmarked)
0.7

Can you look up the measured ED50 of COc1c(C)cnc(CSc2nc3cc(OC(F)(F)F)ccc3[nH]2)c1C for me?
1

Which measured ED50 value corresponds to COc1ccnc(CSc2nc3cc(OC(F)(F)C(F)F)ccc3[nH]2)c1C ?
0.5

* * *

Entries and their ED25 values follow.
- Tested on: gastric secretion (HCl) (rat stomach)
- assay-overview: Shay rat: inhibition of gastric secretion (HCl) in the course of 4 h
- Format: in vivo
- condition-label: Rattus norvegicus, po; perorally, rats; dose reducing HCl secretion (4 h) by 25% vs control
Express your answer in mg/kg, writing the number without its unit.

// solved cases for ED25 follow
COc1ccnc(CSc2nc3cc(OC(F)F)c(OC(F)F)cc3[nH]2)c1C :: 0.5
COc1cc(C[S+]([O-])c2nc3cc(OC(F)(F)F)ccc3[nH]2)ncc1C (centres unmarked) :: 0.6
COc1ccnc(C[S+]([O-])c2nc3cc(OCC(F)(F)F)ccc3[nH]2)c1C (centres unmarked) :: 0.5

What ED25 appears in the records for this compound with gastric secretion (HCl) (rat stomach)? COc1c(C)cnc(C[S+]([O-])c2nc3cc(OC(F)(F)F)ccc3[nH]2)c1C (centres unmarked)
1

* * *

Listed here: items and their measured ED25.
- Tested on: gastric secretion (HCl) (rat stomach)
- assay-overview: Shay rat: inhibition of gastric secretion (HCl) in the course of 4 h
- Format: in vivo
- condition-label: Rattus norvegicus, po; perorally, rats; dose reducing HCl secretion (4 h) by 25% vs control
Reply numerically in mg/kg, unit not repeated.

COc1ccnc(C[S+]([O-])c2nc3cc(OC(F)(F)C(F)F)ccc3[nH]2)c1 (stereo not shown) [Serial No. 5] :: 0.5

Please report the recorded ED25 for COc1ccnc(CSc2nc3cc(OC(F)(F)C(F)F)ccc3[nH]2)c1C [Serial No. 7] .
0.35

Value lookup for ED25; key = COc1c(C)cnc(CSc2nc3cc(OC(F)(F)F)ccc3[nH]2)c1C [Serial No. 9]
1.4

* * *

- System: gastric secretion (HCl) (rat stomach)
- assay-overview: Shay rat: inhibition of gastric secretion (HCl) in the course of 4 h
- Format: in vivo
- condition-label: after administration of the antiulcerous ED50, perorally, 4 h
Here the recorded Gastric secretion (rats): % inhibition of HCl secretion is given for each entry.

COc1ccnc(C[S+]([O-])c2nc3cc(OC(F)(F)F)ccc3[nH]2)c1C (stereo not drawn) :: 32%

For the compound COc1c(C)cnc(CSc2nc3cc(OC(F)(F)F)ccc3[nH]2)c1C , what Gastric secretion (rats): % inhibition of HCl secretion is on record?
10%

// query Gastric secretion (rats): % inhibition of HCl secretion value for entry COc1ccnc(C[S+]([O-])c2nc3cc(OC(F)F)c(OC(F)F)cc3[nH]2)c1 (stereo not drawn)
~ 30%
